Please provide measured pIC50 for the entries that follow.
target-under-test: PI 4-kinase beta (Homo sapiens, UniProt Q9UBF8)
Sequence (Q9UBF8 whole entry): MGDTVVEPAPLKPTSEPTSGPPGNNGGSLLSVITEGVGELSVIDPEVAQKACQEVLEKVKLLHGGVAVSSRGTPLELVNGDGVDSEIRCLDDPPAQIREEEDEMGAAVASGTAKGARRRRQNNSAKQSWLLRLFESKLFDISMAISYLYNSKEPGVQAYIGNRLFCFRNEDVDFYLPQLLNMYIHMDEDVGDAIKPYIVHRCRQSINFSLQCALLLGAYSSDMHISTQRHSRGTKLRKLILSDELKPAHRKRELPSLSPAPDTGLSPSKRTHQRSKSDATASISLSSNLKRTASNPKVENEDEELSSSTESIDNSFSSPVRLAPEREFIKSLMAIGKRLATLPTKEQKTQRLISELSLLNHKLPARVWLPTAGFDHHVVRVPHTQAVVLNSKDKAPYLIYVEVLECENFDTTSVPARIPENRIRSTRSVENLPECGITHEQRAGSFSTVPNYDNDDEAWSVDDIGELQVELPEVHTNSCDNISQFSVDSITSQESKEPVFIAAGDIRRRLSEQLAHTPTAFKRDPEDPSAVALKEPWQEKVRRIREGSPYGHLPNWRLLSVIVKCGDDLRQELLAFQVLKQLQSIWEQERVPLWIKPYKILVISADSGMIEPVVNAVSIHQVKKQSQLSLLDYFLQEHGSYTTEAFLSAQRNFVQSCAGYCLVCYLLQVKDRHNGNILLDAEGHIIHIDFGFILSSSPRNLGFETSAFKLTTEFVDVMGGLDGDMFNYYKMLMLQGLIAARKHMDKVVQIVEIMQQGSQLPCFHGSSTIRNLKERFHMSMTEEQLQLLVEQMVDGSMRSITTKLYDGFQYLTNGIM
measurement-protocol: Kinase Glo Luminescent Kinase Assay (Kglo), assay D
Assay type: biochemical
test-conditions: read-out: Assay D PI4Kβ IC50
Numbers only, as −log10 of the molar value.

Known results for molecules:
[
  {
    "molecule": "CCc1nnc(-c2nc(-c3cc(S(=O)(=O)N[C@H]4CC[C@H](O)CC4)ccc3C)cnc2N)o1 [Example 138]",
    "pIC50": 5.07
  },
  {
    "molecule": "Cc1ccc(S(=O)(=O)NCCC(C)(C)O)cc1-c1cnc(N)c(-n2cncn2)n1 [Example 64]",
    "pIC50": 5.18
  },
  {
    "molecule": "Cc1ccc(S(=O)(=O)NCC(F)F)cc1-c1cnc(N)c(-n2cncn2)n1 [Example 34]",
    "pIC50": 5.42
  }
]

Below is a list of molecules. For each, state its recorded pIC50.
1. Cc1ccc(S(=O)(=O)NCCC(C)(C)O)cc1-c1cnc(N)c(-n2cnc(C(C)C)n2)n1 [Example 66]
2. Cc1ncc(-c2nc(-c3cc(S(=O)(=O)N[C@H]4CC[C@@H](O)CC4)ccc3C)cnc2N)s1 [Example 87]
3. Cc1ccc(S(=O)(=O)NCCC(C)(C)O)cc1-c1cnc(N)c(-c2cnn(CCC(C)C)c2)n1 [Example 119.26]
4. Cc1ccc(S(=O)(=O)NCC2(CO)CCC2)cc1-c1cnc(N)c(-n2cncn2)n1 [Example 127.49]
5. Cc1ncc(-c2nc(-c3cc(S(=O)(=O)NCC4COCCN4C)ccc3C)cnc2N)s1 (stereo not shown) [Example 45.12]
6. Cc1ncc(-c2nc(-c3cc(S(=O)(=O)NC4CCC(F)(F)CC4)ccc3C)cnc2N)s1 [Example 55]

1: 5.10; 2: 5.80; 3: 5.75; 4: 5.40; 5: 5.85; 6: 5.43

Batch lookup, pIC50 per entry.
1. Cc1ccc(S(=O)(=O)NCC(C)(C)O)cc1-c1cnc(N)c(-n2cnc(C3CC3)n2)n1 [Example 109]
2. Cc1ccc(S(=O)(=O)NCC2(CO)COC2)cc1-c1cnc(N)c(-n2cncn2)n1 [Example 35]
3. Cc1ncc(-c2nc(-c3cc(S(=O)(=O)NCCC(C)(C)O)ccc3C)cnc2N)s1 [Example 119.29]

5.07
5.43
5.58

###

target-under-test: mTOR (Homo sapiens)
measurement-protocol: Lanthascreen kinase binding assay, assay G
test-conditions: read-out: Assay G mTOR IC50
Exercise: state measured IC50 for each of the compounds provided.
Answers are plain numbers, in µM.

[
  {
    "smiles-data": "Cc1ccc(S(=O)(=O)NCC2(C(N)=O)CC2)cc1-c1cnc(N)c(-n2cncn2)n1",
    "target-under-test": "mTOR (Homo sapiens)",
    "scale-unit": "µM",
    "measured": 7.4
  }
]

GET IC50 where system = mTOR (Homo sapiens) and item = Cc1ccc(S(=O)(=O)NCCC(C)(C)O)cc1-c1cnc(N)c(-c2cnn(C)n2)n1
7.9

###

target-under-test: PI 3-kinase beta (Homo sapiens, UniProt P42338)
Sequence (P42338 whole entry): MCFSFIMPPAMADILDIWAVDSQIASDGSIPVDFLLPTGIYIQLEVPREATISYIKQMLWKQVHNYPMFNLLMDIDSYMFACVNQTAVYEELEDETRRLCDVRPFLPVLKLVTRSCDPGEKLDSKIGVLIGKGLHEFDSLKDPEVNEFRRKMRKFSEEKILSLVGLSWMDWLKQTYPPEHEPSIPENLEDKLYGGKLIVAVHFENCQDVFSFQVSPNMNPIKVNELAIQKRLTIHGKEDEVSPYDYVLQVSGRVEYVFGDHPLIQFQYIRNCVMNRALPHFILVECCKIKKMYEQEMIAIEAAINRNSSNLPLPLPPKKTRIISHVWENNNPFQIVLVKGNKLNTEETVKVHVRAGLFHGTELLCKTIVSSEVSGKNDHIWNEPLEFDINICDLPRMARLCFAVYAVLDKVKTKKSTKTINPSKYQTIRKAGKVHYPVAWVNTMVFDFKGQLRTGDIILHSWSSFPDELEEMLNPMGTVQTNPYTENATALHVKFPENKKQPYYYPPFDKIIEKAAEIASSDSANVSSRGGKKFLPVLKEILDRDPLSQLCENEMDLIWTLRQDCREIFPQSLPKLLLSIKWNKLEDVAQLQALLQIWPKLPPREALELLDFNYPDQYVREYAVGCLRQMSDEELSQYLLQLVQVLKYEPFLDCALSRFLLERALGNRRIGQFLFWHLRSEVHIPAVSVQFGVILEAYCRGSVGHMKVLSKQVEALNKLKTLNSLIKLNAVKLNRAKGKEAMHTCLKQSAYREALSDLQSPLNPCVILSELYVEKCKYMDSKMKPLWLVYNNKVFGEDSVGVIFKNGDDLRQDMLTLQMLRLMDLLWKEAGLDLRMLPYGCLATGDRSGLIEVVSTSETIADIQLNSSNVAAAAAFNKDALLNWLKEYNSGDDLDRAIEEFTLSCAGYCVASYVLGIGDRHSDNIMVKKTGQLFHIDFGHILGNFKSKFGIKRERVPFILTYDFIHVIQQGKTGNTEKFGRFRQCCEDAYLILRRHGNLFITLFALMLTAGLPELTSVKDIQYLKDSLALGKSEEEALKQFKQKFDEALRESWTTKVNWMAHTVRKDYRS
Sequence (Q63787 whole entry partner): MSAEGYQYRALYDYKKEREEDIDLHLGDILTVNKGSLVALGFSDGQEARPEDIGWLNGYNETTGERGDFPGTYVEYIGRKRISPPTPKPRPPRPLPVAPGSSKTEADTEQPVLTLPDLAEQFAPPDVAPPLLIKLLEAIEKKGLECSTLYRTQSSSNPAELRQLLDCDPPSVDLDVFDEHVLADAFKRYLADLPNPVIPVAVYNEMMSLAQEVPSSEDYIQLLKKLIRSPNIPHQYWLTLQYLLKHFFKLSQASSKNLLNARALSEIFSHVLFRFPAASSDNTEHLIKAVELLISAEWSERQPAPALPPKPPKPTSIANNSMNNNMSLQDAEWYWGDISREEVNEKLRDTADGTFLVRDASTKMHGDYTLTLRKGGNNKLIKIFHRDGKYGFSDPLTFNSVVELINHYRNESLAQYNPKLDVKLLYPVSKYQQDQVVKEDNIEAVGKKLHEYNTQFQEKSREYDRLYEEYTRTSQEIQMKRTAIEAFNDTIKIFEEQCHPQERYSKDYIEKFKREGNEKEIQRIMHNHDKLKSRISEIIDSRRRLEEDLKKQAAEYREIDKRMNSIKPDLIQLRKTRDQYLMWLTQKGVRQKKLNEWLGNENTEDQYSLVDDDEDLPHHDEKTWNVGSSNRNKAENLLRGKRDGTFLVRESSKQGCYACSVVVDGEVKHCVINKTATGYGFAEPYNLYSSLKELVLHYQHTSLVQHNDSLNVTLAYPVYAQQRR
measurement-protocol: Cellular assay I1, p-Akt (S473) in Rat-1 cells, Surefire format
Assay type: cell-based
test-conditions: non-asterisked data: version I1 (Surefire format), Rat-1 cells; read-out: Assay I PI3Kβ IC50
Can you tell me pIC50 for the items I'm about to list?
One number for each entry, as −log10 of the molar value.

[
  {
    "compound": "Cc1ccc(S(=O)(=O)NCC2(O)CCCC2)cc1-c1cnc(N)c(-n2cncn2)n1 [Example 127.35]",
    "target-under-test": "PI 3-kinase beta (Homo sapiens, UniProt P42338)",
    "pIC50": 5.69
  },
  {
    "compound": "Cc1ccc(S(=O)(=O)N[C@H]2CC[C@H](O)CC2)cc1-c1cnc(N)c(-c2nc(C(C)C)no2)n1 [Example 23]",
    "target-under-test": "PI 3-kinase beta (Homo sapiens, UniProt P42338)",
    "pIC50": 5.19
  },
  {
    "compound": "Cc1ccc(S(=O)(=O)NCCC(O)C(F)(F)F)cc1-c1cnc(N)c(-c2cnn(C)c2)n1 (stereo not shown) [Example 51]",
    "target-under-test": "PI 3-kinase beta (Homo sapiens, UniProt P42338)",
    "pIC50": 5.18
  },
  {
    "compound": "CCONS(=O)(=O)c1ccc(C)c(-c2cnc(N)c(-n3cncn3)n2)c1 [Example 112]",
    "target-under-test": "PI 3-kinase beta (Homo sapiens, UniProt P42338)",
    "pIC50": 5.94
  },
  {
    "compound": "Cc1ncc(-c2nc(-c3cc(S(=O)(=O)NCC(C)(C)O)ccc3C)cnc2N)s1 [Example 7]",
    "target-under-test": "PI 3-kinase beta (Homo sapiens, UniProt P42338)",
    "pIC50": 5.46
  },
  {
    "compound": "Cc1ccc(S(=O)(=O)NC2CC3(CC(O)C3)C2)cc1-c1cnc(N)c(-n2cncn2)n1 (stereo not shown) [Example 67]",
    "target-under-test": "PI 3-kinase beta (Homo sapiens, UniProt P42338)",
    "pIC50": 5.53
  }
]

For every item below, please supply its pIC50.
1. Cc1ccc(S(=O)(=O)NC[C@H]2CCOC2)cc1-c1cnc(N)c(-c2cn(C)nc2C)n1 [Example 16]
2. Cc1ccc(S(=O)(=O)N[C@H]2CC[C@H](O)CC2)cc1-c1cnc(N)c(-c2nc(C3CC3)no2)n1 [Example 24]
3. Cc1ccc(S(=O)(=O)NCCC(C)(C)O)cc1-c1cnc(N)c(-n2cncn2)n1 [Example 64]
4. Cc1ccc(S(=O)(=O)NCCC(C)(C)O)cc1-c1cnc(N)c(-c2cnn(Cc3cccnc3)c2)n1 [Example 119.38]

1: 5.73; 2: 5.20; 3: 5.36; 4: 5.66

Source of measurements: patent US10004732B2
